Hi there, I'd appreciate the recorded selectivity ratio for every entry that follows.
Method Description: Selectivity index, ratio of IC50 for human A549 cells to MIC80 for azole-resistant Candida tropicalis 5008
Type: toxicity

Problem: selectivity ratio lookup needed for CN(Cc1ccc(OCCCOc2ccc(CC(=O)NO)cc2)cc1)CC(O)(Cn1cncn1)c1ccc(F)cc1F (racemic) , thanks.
Solution: 2 to 16

Problem: Try this compound next: CN(Cc1ccc(-n2cnn(CCCCc3ccc(C(=O)NO)cc3)c2=O)cc1)CC(O)(Cn1cncn1)c1ccc(F)cc1F (racemic)
Solution: 2 to 16

###

Would you mind telling me the reported MIC80 of each entry?
Test system: Candida albicans
Method Description: Antifungal activity against azole-resistant Candida albicans 4108 after 48 hrs by spectrophotometry-based serial microdilution method
Type: functional
Condition Summary: Candida albicans, 4108, 48 h
Write the value in µg/mL as a bare number.

Problem: Form field: reported MIC80 of CN(Cc1ccc(OCCCCCCCC(=O)NO)cc1)CC(O)(Cn1cncn1)c1ccc(F)cc1F (racemic)
Solution: 0.5

Problem: What about this compound? CN(Cc1cccc(OCCCOc2ccc(CCC(=O)NO)cc2)c1)CC(O)(Cn1cncn1)c1ccc(F)cc1F (racemic)
Solution: 4

Problem: Now the compound CN(Cc1ccc(OCCCOc2ccc(CC(=O)NO)cc2)cc1)CC(O)(Cn1cncn1)c1ccc(F)cc1F (racemic)
Solution: 0.5

Problem: # repeat for CC(C)N(Cc1ccc(OCCCOc2ccc(CC(=O)NO)cc2)cc1)CC(O)(Cn1cncn1)c1ccc(F)cc1F (racemic)
Solution: 4

Problem: Request: CN(Cc1ccc(OCCCOc2ccc(C(=O)NO)cc2)cc1)CC(O)(Cn1cncn1)c1ccc(F)cc1F (racemic)
Solution: 1

###

System: Candida albicans
Method Description: Antifungal activity against azole-resistant Candida albicans 4108 after 48 hrs by spectrophotometry-based serial microdilution method
Assay type: functional
Condition Summary: Candida albicans, 4108, 48 h
Recorded Metric: MIC80 (µg/mL)
Numeric answer only, unit µg/mL assumed.

Problem: For the compound CN(Cc1ccc(-n2cnn(CCCCCCCCC(=O)NO)c2=O)cc1)CC(O)(Cn1cncn1)c1ccc(F)cc1F (racemic) , what MIC80 is on record?
Solution: 32

Problem: Also CN(Cc1ccc(-n2cnn(CCCCCCCC(=O)NO)c2=O)cc1)CC(O)(Cn1cncn1)c1ccc(F)cc1F (racemic) , if possible.
Solution: 64

Problem: Follow-up item: CN(Cc1cccc(OCCCOc2ccc(C(=O)NO)cc2)c1)CC(O)(Cn1cncn1)c1ccc(F)cc1F (racemic)
Solution: 2

Problem: Same read-out for CN(Cc1ccccc1OCCCOc1ccc(CC(=O)NO)cc1)CC(O)(Cn1cncn1)c1ccc(F)cc1F (racemic) ?
Solution: 2

Problem: Now consider O=C(Cc1ccc(OCCCOc2ccc(CN(CC(O)(Cn3cncn3)c3ccc(F)cc3F)C3CC3)cc2)cc1)NO (racemic) and answer again.
Solution: 32

Problem: Then this compound: CN(Cc1ccc(CCCOc2ccc(CC(=O)NO)cc2)cc1)CC(O)(Cn1cncn1)c1ccc(F)cc1F (racemic)
Solution: 0.5

###

Tested on: Candida albicans
Method Description: Antifungal activity against azole-resistant Candida albicans 0304103 after 48 hrs by spectrophotometry-based serial microdilution method
Assay type: functional
Condition Summary: Candida albicans, 0304103, 48 h
Recorded Metric: MIC80 (µg/mL)
Quick note: give the figure in µg/mL, leave out the unit.

Problem: Requested read-out: MIC80. Entry: CN(Cc1ccc(OCCCOc2ccc(CC(=O)NO)cc2)cc1)CC(O)(Cn1cncn1)c1ccc(F)cc1F (racemic)
Solution: 0.25

Problem: Now the same for CN(Cc1ccc(OCCCCCC(=O)NO)cc1)CC(O)(Cn1cncn1)c1ccc(F)cc1F (racemic)
Solution: 2

Problem: Entry to check: CN(Cc1cccc(OCCCOc2ccc(CC(=O)NO)cc2)c1)CC(O)(Cn1cncn1)c1ccc(F)cc1F (racemic)
Solution: 4
